Biological target: prolipoprotein diacylglyceryl transferase, Lgt (Escherichia coli)
Construct: Expression, purification, and in vitro Lgt biochemical assay were conducted as described by Diao et al; made in house
Test: In vitro Lgt biochemical assay (phosphatidylglycerol and Pal-IAAC peptide substrates)
Parameters: species or system E. coli
Conditions: in vitro Lgt inhibition Amph-Lgt IC50, Lgt purified using amphipol lipid matrix
recordedEndpoint: pIC50
Scale: pIC50 equals -log10([C]), with [C] in mol/L.

For the compound COc1ccc(C(=O)O/N=C(\c2cccs2)C(C)(C)C)cc1 , what pIC50 is on record?
6.23

###

System: E. coli BW25113
Experiment: MIC assay, wild-type E. coli with or without SPR741
Assay type: cell-based
Details: 8 μg/mL SPR741
recordedEndpoint: MIC, E. coli BW25113 (WT) + 8 μg/mL SPR741 (mg/L)
Record the value in mg/L, omitting the unit from your answer.

For the compound CC(C)(C)/C(=N/OC(=O)c1cncs1)c1cccs1 , what MIC, E. coli BW25113 (WT) + 8 μg/mL SPR741 is on record?
2

Any idea what its MIC, E. coli BW25113 (WT) + 8 μg/mL SPR741 is? The compound is COc1ccc(CC(=O)O/N=C(\c2cccs2)C(C)(C)C)cc1
4

Please give the measured MIC, E. coli BW25113 (WT) + 8 μg/mL SPR741 for this compound: COc1cc(OC)cc(C(=O)O/N=C(\c2cccs2)C(C)(C)C)c1
4

Suppose we examine the compound COc1ccc(C(=O)O/N=C(\c2cccs2)C(C)(C)C)cc1N ; what MIC, E. coli BW25113 (WT) + 8 μg/mL SPR741 value has been reported?
8

Form field: reported MIC, E. coli BW25113 (WT) + 8 μg/mL SPR741 of Cn1cncc1C(=O)O/N=C(\c1cccs1)C(C)(C)C
4

###

Target: prolipoprotein diacylglyceryl transferase, Lgt (Escherichia coli, UniProt P60955)
Construct: Expression, purification, and in vitro Lgt biochemical assay were conducted as described by Diao et al; made in house
Sequence (P60955 whole entry): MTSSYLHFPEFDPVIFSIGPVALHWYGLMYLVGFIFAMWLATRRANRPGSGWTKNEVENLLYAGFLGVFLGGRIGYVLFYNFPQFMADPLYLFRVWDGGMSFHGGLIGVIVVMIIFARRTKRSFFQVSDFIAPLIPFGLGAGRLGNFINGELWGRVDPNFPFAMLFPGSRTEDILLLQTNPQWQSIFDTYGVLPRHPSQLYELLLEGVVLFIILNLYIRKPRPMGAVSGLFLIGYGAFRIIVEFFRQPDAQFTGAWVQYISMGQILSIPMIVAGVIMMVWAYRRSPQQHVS
Assay: In vitro Lgt biochemical assay (phosphatidylglycerol and Pal-IAAC peptide substrates)
Set-up: species or system E. coli
Conditions: in vitro Lgt inhibition DDM-Lgt IC50, Lgt purified using DDM lipid matrix
recordedEndpoint: IC50 (nM)
The figure you give is taken to be in nM; do not add the unit.

Give its IC50 value. Item: COc1ccc(C(=O)O/N=C(\c2cccs2)C(C)(C)C)cc1 [MAC-0452936]
1450

###

Target: prolipoprotein diacylglyceryl transferase, Lgt (Escherichia coli, UniProt P60955)
Construct: Expression, purification, and in vitro Lgt biochemical assay were conducted as described by Diao et al; made in house
Assay: In vitro Lgt biochemical assay (phosphatidylglycerol and Pal-IAAC peptide substrates)
Parameters: species or system E. coli
Conditions: Lgt purified using amphipol lipid matrix; read-out: in vitro Lgt inhibition Amph-Lgt IC50
Excerpt: With both genetic and phenotypic evidence supporting MAC-0452936 inhibiting Lgt in E. coli, we next investigated whether MAC-0452936 could inhibit Lgt activity in vitro. Recently, a biochemical assay for Lgt activity was developed using phosphatidylglycerol and Pal-IAAC peptide as substrates.[12] […] As similar results were obtained using two different Lgt enzyme preparations, the inhibition observed by MAC-0452936 was not dependent on the preparation of the lipid matrix. […]
pIC50: −log10 of the molar value.
Values of pIC50 greater than or equal to 5 map to Criterion met; values below map to Criterion not met.

Determine whether measured pIC50 meets or exceeds 5 for COc1cc(OC)cc(C(=O)O/N=C(\c2cccs2)C(C)(C)C)c1
Criterion not met

Please check the record COc1ccc(C(=O)O/N=C(\c2cccs2)C(C)(C)C)c(F)c1 and state if its pIC50 is at or above 5.
Criterion met

Is pIC50 at least 5? Consider Cn1cncc1C(=O)O/N=C(\c1cccs1)C(C)(C)C
Criterion met

Does the reported pIC50 for CC(C)(C)/C(=N/OC(=O)c1cccnc1)c1cccs1 fall at or above the 5 mark?
Criterion met

Please check the record CC(C)(C)/C(=N/OC(=O)c1cncs1)c1cccs1 and state if its pIC50 is at or above 5.
Criterion met

Is pIC50 at least 5? Consider COc1ccc(C(=O)O/N=C(\c2cccs2)C(C)(C)C)cc1N
Criterion not met

Hello, the source for this data is paper PMC11456916, in case you need it.
